Test system: CD2F1 mice, L1210 leukemia ip, survival T/C
Assay: NCI In Vivo Anticancer Drug Screen. Data for tumor model L1210 Leukemia (intraperitoneal) in CD2F1 (CDF1) mice
Settings: endpoint: mean survival time; dose: 50.0 mg/kg/injection; schedule: Q01DX009 (ip); vehicle: saline with Tween-80; higher = longer survival
Inconclusive results and toxic doses are left out.
property.label: T/C

Some solved cases for reference:
                                smiles_repr        meas_value
0  O=C(/C(=N\Nc1ccc([N+](=O)[O-])cc1)c1ccccc1)c1ccccc1   88 % of control
1  CC(=O)N(C)c1ccc(NC(=O)Nc2ccc(Cl)cc2C)cc1   91 % of control
2                          CCCC/C=C\C(=O)OC  101 % of control
3  O=c1oc(-c2ccc([N+](=O)[O-])cc2)nc2cc(Cl)ccc12   97 % of control

-- ask # input compound: `Brc1ccc(-c2csc(Nc3nc(-c4ccc(Br)cc4)cs3)n2)cc1` ; wanted: its T/C
-- reply 96 % of control

-- ask Here is the next compound: `BrCC[Se]c1ccccc1`
-- reply 107 % of control

* * *

System: CD2F1 mice, L1210 leukemia ip, survival T/C
Assay: NCI In Vivo Anticancer Drug Screen. Data for tumor model L1210 Leukemia (intraperitoneal) in CD2F1 (CDF1) mice
Settings: endpoint: mean survival time; dose: 150.0 mg/kg/injection; schedule: Q01DX001 (ip); vehicle: other; higher = longer survival
Inconclusive results and toxic doses are left out.
In this section we review reported T/C values for a set of compounds.

# count of solved cases: 4
                                   compound  property_label       meas_value
0              CC1=C(C#[N+][O-])C(C)(C)CCC1             T/C  97 % of control
1  C[N+]12CCC34c5ccccc5NC3C3C(CC(=O)[O-])OCC=C(C1)C3CC42 (stereo unspecified)             T/C  98 % of control
2                    Nc1nc(N)n(-c2ccccn2)n1             T/C  97 % of control
3       CCCCCCOc1ccc(N=Cc2ccc(N(C)C)cc2)cc1             T/C  94 % of control

-- ask Tell me the measured T/C of CC1(C)C2CC=C(CC3CC(=O)OC3=O)C1C2 (stereo unspecified) , please.
-- reply 102 % of control

-- ask Entry to check: `CN(C)N=Nc1c(-c2cccs2)n[nH]c1C(F)(F)F`
-- reply 103 % of control

* * *

Reported T/C values follow for various compounds
Tested on: CD2F1 mice, L1210 leukemia ip, survival T/C
Test: NCI In Vivo Anticancer Drug Screen. Data for tumor model L1210 Leukemia (intraperitoneal) in CD2F1 (CDF1) mice
Conditions: endpoint: mean survival time; dose: 100.0 mg/kg/injection; schedule: Q01DX009 (ip); vehicle: saline with Tween-80; higher = longer survival
Toxic doses and inconclusive results are not listed. Non-standard residues stand in square brackets, D forms with d. Residues, ends and D or L forms follow the SMILES beside them. ξ: configuration not given here. ξF = NC(Cc1ccccc1)C(=O)O

A selection of reference data follows.
                                   compound                             target_entity        meas_value
0  NCC(=O)NC(Cc1ccccc1)C(=O)O (stereo not given) (H-Gly-[ξF]-OH)  CD2F1 mice, L1210 leukemia ip, survival T/C  100 % of control
1      N#CCc1ccc(N=Nc2c(N)nc(N)[nH]c2=O)cc1  CD2F1 mice, L1210 leukemia ip, survival T/C   99 % of control
2  F[Si](c1ccccc1)(c1cccc2ccccc12)c1cccc2ccccc12  CD2F1 mice, L1210 leukemia ip, survival T/C   96 % of control
3        O=C1c2cc(Cl)ccc2-c2c(Cl)cc(Cl)cc21  CD2F1 mice, L1210 leukemia ip, survival T/C  101 % of control

-- ask Report T/C for `O=C1c2ccccc2C(=O)c2c(Cl)cccc21` tested on CD2F1 mice, L1210 leukemia ip, survival T/C.
-- reply 88 % of control

-- ask Subsequent entry: `C=C(C)c1ccc(C)c(C)c1`
-- reply 93 % of control

-- ask Also `c1ccc(NSc2ccccc2)cc1` , if possible.
-- reply 101 % of control

-- ask And what about the compound `COc1cc(/C=N/NC(=O)CNC(=O)NCc2ccco2)ccc1O` ?
-- reply 92 % of control

-- ask Okay, and `Cc1ccc(NC(=O)c2ccccc2C(=O)O)c(C)c1` ?
-- reply 109 % of control

-- ask Param item: `COc1ccc(CCc2nc(CCCCO)[nH]c2C)cc1OC`
-- reply 92 % of control
